Recorded growth by entry
# Tested on: OVCAR-4 ovarian
# METHOD_DESCRIPTION: NCI-60 one-dose screen, 48 h (100 = growth as untreated, 0 = no growth, -100 = all killed)
# MEASUREMENT_SETUP: 10 µM unless noted
# Experimental: Growth inhibition of the OVCAR-4 human tumor cell line is measured as a screen for anti-cancer activity. Cells are grown in 96 well plates and exposed to the test compound for 48 hours. Compounds are tested at a single concentration, which is 10^-5 M for most compounds. The reported endpoint is percent growth (GI% or GIPRCNT), where numbers from 0 - 100% represent growth inhibition, and numbers from -100% - 0 represent cell death. For example, a value of 40 represents 60% growth inhibition. […]
The panel holds about 83,000 compounds, 20% with a hit somewhere; the sample as a whole holds those more often.
VALUE_KIND: growth (%)

[[record]]
smiles_str = "CCCCc1nc2c(N)nc3ccccc3c2n1Cc1cccc(CN)c1"
value_kind = "growth"
recorded_value = 53.6

[[record]]
smiles_str = "C#C[C@]1(O)CC[C@H]2[C@@H]3CC=C4c5sc(N(C)c6ccccc6)nc5CC[C@]4(C)[C@H]3CC[C@@]21C"
value_kind = "growth"
recorded_value = 94

[[record]]
smiles_str = "O=C(NCCNc1cc(-c2cn(-c3ccccc3)nc2-c2cccc(O)c2)ccn1)Nc1cc(C(F)(F)F)cc(C(F)(F)F)c1"
value_kind = "growth"
recorded_value = 91.6

[[record]]
smiles_str = "N#CC1=C2NCCCNc3oc(nc3C#N)Cc3ccccc3CC(=N1)O2"
value_kind = "growth"
recorded_value = 94.5

[[record]]
smiles_str = "CC1=C(SCC(=O)OCCCCCC(C)C)C(=O)c2ccccc2C1=O"
value_kind = "growth"
recorded_value = 70.1

[[record]]
smiles_str = "CCCC[n+]1ccc(SCC(=O)n2ccc3ccccc32)c2ccccc21"
value_kind = "growth"
recorded_value = 72.1

[[record]]
smiles_str = "Cn1cc(-c2nn3cc(-c4ccncc4)nc3s2)c2cc(Br)ccc21"
value_kind = "growth"
recorded_value = 75.7

[[record]]
smiles_str = "O=c1c2cc(-c3ccc(F)cc3F)ccc2n(Nc2ccccc2)c(=O)n1-c1cccc(C(F)(F)F)c1"
value_kind = "growth"
recorded_value = 30.7

[[record]]
smiles_str = "Oc1ccc(-c2nc3ccc(/C(=N\\N=C\\c4ccc(Cl)cc4)c4ccccc4)cc3[nH]2)cc1"
value_kind = "growth"
recorded_value = 58.1

[[record]]
smiles_str = "CC1=C(C)C(=O)C(Nc2ccc3c(c2)OCO3)=C(Br)C1=O"
value_kind = "growth"
recorded_value = 60.3


###

# System: COLO 205 colon
# METHOD_DESCRIPTION: NCI-60 one-dose screen, 48 h
# MEASUREMENT_SETUP: 10 µM unless noted
# Protocol: Cells are grown in 96 well plates and exposed to the test compound for 48 hours. Compounds are tested at a single concentration, which is 10^-5 M for most compounds. The reported endpoint is percent growth (GI% or GIPRCNT), where numbers from 0 - 100% represent growth inhibition, and numbers from -100% - 0 represent cell death. For example, a value of 40 represents 60% growth inhibition. A value of 0 means no net growth occurred over the course of the experiment. […]
About 83,000 compounds went through this panel and 20% of them were active in at least one assay; those are over-represented in the sample as a whole. Calls of active or inactive are those of the source. The calls were made as follows: active = growth percent below 10; inactive = the rest.
Outcomes: True = active, False = inactive

[[record]]
smiles_str = "CC/C(=C(/c1ccc(Cl)cc1)c1ccc(OCCN)cc1)c1ccccc1"
answer_label = "False"

[[record]]
smiles_str = "NS(=O)(=O)c1ccc(Nc2nc(N/N=C/c3ccc4c(c3)OCO4)nc(Nc3ccccc3)n2)cc1"
answer_label = "False"

[[record]]
smiles_str = "CCCCCC[n+]1ccc(SCC(=O)n2ccc3ccccc32)c2ccccc21"
answer_label = "False"

[[record]]
smiles_str = "O=C(CCCCCCNC(=O)C(O)(O)C(F)(F)F)Nc1ccc(Br)cc1"
answer_label = "True"

[[record]]
smiles_str = "O=C(CCCCCCNC(=O)c1csc(Br)n1)NO"
answer_label = "False"

[[record]]
smiles_str = "Cn1c(SCC(=O)c2ccc(F)cc2)nc2ccccc2c1=O"
answer_label = "False"


###

# Test system: HT29 colon
# METHOD_DESCRIPTION: NCI-60 one-dose screen, 48 h (100 = growth as untreated, 0 = no growth, -100 = all killed)
# MEASUREMENT_SETUP: 10 µM unless noted
# Experimental: Growth inhibition of the HT29 human tumor cell line is measured as a screen for anti-cancer activity. Cells are grown in 96 well plates and exposed to the test compound for 48 hours. Compounds are tested at a single concentration, which is 10^-5 M for most compounds. The reported endpoint is percent growth (GI% or GIPRCNT), where numbers from 0 - 100% represent growth inhibition, and numbers from -100% - 0 represent cell death. For example, a value of 40 represents 60% growth inhibition. […]
About 83,000 compounds went through this panel and 20% of them were active in at least one assay; those are over-represented in the sample as a whole.
Recorded growth by entry
VALUE_KIND: growth (%)

[[record]]
smiles_str = "Cn1ncc2c(C(=O)c3ccc(F)cc3)nc(C(C)(C)C)nc21"
value_kind = "growth"
recorded_value = 104

[[record]]
smiles_str = "Brc1ccc(-c2cc(-c3ccc4c(c3)OC=CO4)n[nH]2)s1"
value_kind = "growth"
recorded_value = 74.1

[[record]]
smiles_str = "Cc1ccc(C(=O)Nc2ccc(CNCCN3CCOCC3)c(C(F)(F)F)c2)cc1C#Cc1cnc2cccnn12"
value_kind = "growth"
recorded_value = 2.36

[[record]]
smiles_str = "COc1ccc([C@@H]2C(=O)N(c3cc(OC)c(OC)c(OC)c3)[C@H]2c2ccc(OC)c(O)c2)cc1"
value_kind = "growth"
recorded_value = -12

[[record]]
smiles_str = "Nn1c(=O)n(-c2cccc(C(F)(F)F)c2)c(=O)c2cc(-c3ccc(F)cc3F)ccc21"
value_kind = "growth"
recorded_value = 60.8


###

# System: NCI-H460 lung
# METHOD_DESCRIPTION: NCI-60 one-dose screen, 48 h
# MEASUREMENT_SETUP: 10 µM unless noted
This is part of a sample that, as a whole, favours compounds with a hit. Of some 83,000 tested, about 20% had one in any assay. The source made the active and inactive calls. How the source made its calls: active means growth percent below 10; inactive means the rest.
Outcomes: y for active, n for inactive

[[record]]
compound = "CN(C)CC(=O)Nc1nc(-c2cccc(NS(=O)(=O)c3cccc4c(N(C)C)cccc34)c2)cs1"
measured_target = "NCI-H460 lung"
answer_label = "n"

[[record]]
compound = "NC(=O)c1c(NC(=O)c2ccc(C(F)(F)F)cc2)sc2c1CCC(=O)C2"
measured_target = "NCI-H460 lung"
answer_label = "n"

[[record]]
compound = "CN1CCN(c2ccc(C(=O)/C=C/c3cc(F)cc(C(F)(F)F)c3)cc2)CC1"
measured_target = "NCI-H460 lung"
answer_label = "n"

[[record]]
compound = "O=C1/C(=C/C=C/c2ccco2)SC(=S)N1Cc1ccccc1"
measured_target = "NCI-H460 lung"
answer_label = "n"

[[record]]
compound = "CCCCN1C(=O)/C(=c2\\sc3n(c2=O)C2C(NN=3)N(CC)C(=O)N2CC)c2cc(C)ccc21 (configuration not stated)"
measured_target = "NCI-H460 lung"
answer_label = "n"

[[record]]
compound = "Cc1ccccc1Nc1nc(SC(C)C)nc(-c2ccccc2)c1C#N"
measured_target = "NCI-H460 lung"
answer_label = "n"

[[record]]
compound = "COC(=O)N1CCN(CCNCc2ccc(NC(=O)c3ccc(C)c(C#Cc4cnc5cccnn45)c3)cc2C(F)(F)F)CC1"
measured_target = "NCI-H460 lung"
answer_label = "n"

[[record]]
compound = "CN1CCN(c2ccc(Nc3nc(NCCNC(=O)c4ccccc4)c4sccc4n3)cc2)CC1"
measured_target = "NCI-H460 lung"
answer_label = "n"

[[record]]
compound = "O=C1/C(=C/c2cc(F)cc(F)c2)Cc2cc3c(cc21)OCO3"
measured_target = "NCI-H460 lung"
answer_label = "n"

[[record]]
compound = "COc1ccc([C@H]2C(=O)N(c3cc(OC)c(OC)c(OC)c3)[C@@H]2c2ccc(OC)c(O)c2)cc1"
measured_target = "NCI-H460 lung"
answer_label = "y"

[[record]]
compound = "CC(C)(C)c1cc(NC(=O)Nc2ccc(-c3cn4c5c(sc4n3)CCc3cn(CCCN4CCCCC4)cc3-5)cc2)no1"
measured_target = "NCI-H460 lung"
answer_label = "y"

[[record]]
compound = "Clc1ccc2[nH]cc(-c3nn4cc(-c5cccnc5)nc4s3)c2c1"
measured_target = "NCI-H460 lung"
answer_label = "n"

[[record]]
compound = "Cn1c(SCC(=O)c2ccc(Br)cc2)nc2ccccc2c1=O"
measured_target = "NCI-H460 lung"
answer_label = "n"

[[record]]
compound = "CCN1CCN(c2ccc(NC(=O)Nc3ccc4c(ccn4-c4ccnc(C(=O)NC)c4)c3)cc2C(F)(F)F)CC1"
measured_target = "NCI-H460 lung"
answer_label = "n"

[[record]]
compound = "CC(C)=CCC[C@](C)(O)[C@H]1CC[C@]2(C)[C@@H]1CC[C@@H]1[C@@]3(C)CC[C@H](N)C(C)(C)[C@@H]3CC[C@]12C"
measured_target = "NCI-H460 lung"
answer_label = "n"

[[record]]
compound = "CCOC(=O)c1c(NC(=O)c2ccc(C(F)(F)F)cc2)sc2c(CN3CCN(C)CC3)c(O)ccc12"
measured_target = "NCI-H460 lung"
answer_label = "y"

[[record]]
compound = "O=C(CSc1nc2ccccc2c(=O)n1CCc1ccccc1)Nc1ccc(S(=O)(=O)Nc2ccc(Cl)nn2)cc1"
measured_target = "NCI-H460 lung"
answer_label = "n"

[[record]]
compound = "N#Cc1nc(-c2ccccc2)oc1N1CCC(C2(C(F)(F)F)N=N2)CC1"
measured_target = "NCI-H460 lung"
answer_label = "n"

[[record]]
compound = "O=C(Nc1ccc(N2CCOCC2)cc1)Nc1ccc2c(ccn2C(=O)c2cccc(F)c2)c1"
measured_target = "NCI-H460 lung"
answer_label = "n"

[[record]]
compound = "Cc1cc(C)cc(NC2=C(Cl)C(=O)c3nc(C)ccc3C2=O)c1"
measured_target = "NCI-H460 lung"
answer_label = "n"

[[record]]
compound = "COc1ccc(N2CCN(C3=C(Cl)C(=O)c4ncccc4C3=O)CC2)cc1"
measured_target = "NCI-H460 lung"
answer_label = "n"

[[record]]
compound = "CCCCN1C(=O)/C(=c2\\sc3n(c2=O)C2C(NN=3)N(CC)C(=O)N2CC)c2cccc(C)c21 (configuration not stated)"
measured_target = "NCI-H460 lung"
answer_label = "n"

